- Test system: CCRF-CEM
- assay method text: NCI tumour cell line growth inhibition, 48 h
Calls of active or inactive are those of the source. Rule as the data show it: active = GI50 up to about 1.1 µM and inactive = higher.
GI50: recorded values
observation type: GI50

> print(dat)
                            smiles.notation       value.reported
1           Nc1c(Cl)cc(-c2nc3ccccc3s2)cc1Cl  > 100 µM (inactive)
2  O=c1[nH]/c(=C/c2ccc(OCc3ccccc3)cn2)c(=O)[nH]/c1=C/c1ccc([N+](=O)[O-])cc1  > 100 µM (inactive)
3  O=C(CCc1nnc2s/c(=C\c3ccccc3)c(=O)n12)Nc1cc(Cl)ccc1Cl  > 100 µM (inactive)
4  Cc1nc(O)nc(NNCc2ccc(Cl)cc2)c1C(=O)Nc1ccc(Cl)cc1  > 100 µM (inactive)
5  CN(C)/C=C/C=C(/C=N/S(=O)(=O)C(F)(F)F)C1C=CN(S(=O)(=O)C(F)(F)F)C=C1   27.1 µM (inactive)

* * *

- Tested on: HOP-62
- assay method text: NCI tumour cell line growth inhibition, 48 h
Calls of active or inactive are those of the source. No stated cut-off is given here; in the data, active = GI50 up to about 1.1 µM and inactive = higher.
Recorded GI50, one value per entry.
observation type: GI50

> print(dat)
                                   compound  observation.type       value.reported
1  C/C=C1/C=CC2c3[nH]c4ccccc4c3CCN2C1 (centres undefined)              GI50  > 400 µM (inactive)
2  Cc1c2ccncc2c(C)c2c1[nH]c1ccc(OCC(F)(F)F)cc12              GI50   1.63 µM (inactive)
3  Cn1c(-c2ccccc2)cc(-c2ccc3c(c2)OCO3)c1-c1ccsc1              GI50  > 100 µM (inactive)
4  NC(C(F)(F)F)(C(F)(F)F)P(=O)(Cc1ccccc1)Cc1ccccc1              GI50   83.2 µM (inactive)

* * *

Examples of molecules with documented GI50 follow.
- System: OVCAR-4
- assay method text: NCI tumour cell line growth inhibition, 48 h
Active and inactive are the calls of the source. Rule as the data show it: active = GI50 up to about 1.1 µM and inactive = higher.
observation type: GI50

> print(dat)
                                   molecule       value.reported
1  COC(=O)C1[C@H](c2cc(OC)c(OC)c(OC)c2)OC(=O)C1(C(=O)OC)C(=O)c1ccc2c(c1)OCO2 (stereo partly drawn)  > 100 µM (inactive)
2  O=C1C=CC(=O)c2c(O)ccc(O)c21 [NAPHTHAZALIN]   2.39 µM (inactive)
3  COP(=O)(OC)[C@@](O)(c1ccccc1)[C@@H](O)[C@@H](O)c1ccccc1  > 100 µM (inactive)
4  CCN(CC)CCNc1ccc([N+](=O)[O-])c2nc3ccccc3c(N)c12    0.422 µM (active)
5  COC(=O)C(Cc1c[nH]c2ccccc12)NP(=O)(O)OCC1OC(n2cc(I)c(=O)[nH]c2=O)CC1O (stereo not drawn)  > 100 µM (inactive)
6  Cc1cc(N(CCC#N)CCC#N)ccc1/N=N/c1cccc(Cl)c1  > 100 µM (inactive)
7  CC1(C)OC(=O)C(Cc2ccccc2)(Cc2ccccc2)C(=O)O1  > 100 µM (inactive)
8  CCCCC1(OC(=O)CCC(=O)O)CCC2(CCC(C)C(C/C=C(C)/C=C/C(O)C(C)/C=C/C(=O)O)O2)OC1CC/C(C)=C/C(=O)O (stereo not drawn)    2.1 µM (inactive)

* * *

- Test system: HCC 2998
- assay method text: NCI tumour cell line growth inhibition, 48 h
Calls of active or inactive are those of the source. No stated cut-off is given here; in the data, active = GI50 up to about 1.1 µM and inactive = higher.
Outcome codes: active, inactive

molecule	system	cat
O=c1c(Cc2ccccc2)c(O)cc2n1CCC2	HCC 2998	inactive
Nc1c(Cl)cc(-c2nc3ccccc3s2)cc1Cl	HCC 2998	inactive
CC(C)C1CCC(=O)CC1CCCCC1CC(=O)CC1O[Si](C)(C)C(C)(C)C (stereo not given)	HCC 2998	inactive
OCC(CO)CC1COc2ccccc2O1 (stereo not given)	HCC 2998	inactive
C/C=C/C1OC(O)(C(C)C(O)[C@H](C)C2OC(=O)/C(OC)=C/C(C)=C/[C@@H](C)[C@@H](O)[C@@H](C)C(O)C(C)C/C(C)=C/C=C/C2OC)C[C@@H](OC2CC(O)C(OC(N)=O)C(C)O2)C1C (stereo not given in full)	HCC 2998	active
CSc1nc(Cl)c(Br)c(Nc2cnc(O)nc2O)n1	HCC 2998	inactive
COc1ccc2c(c1)CCCc1cn[nH]c1-2	HCC 2998	inactive
CN1CCc2c1nc(-c1cccnc1)c1c2N(C)CC1	HCC 2998	inactive
Cc1nc(O)nc(NNCc2ccc(Cl)cc2)c1C(=O)Nc1ccc(Cl)cc1	HCC 2998	inactive
O=C(CCc1nnc2s/c(=C\c3ccccc3)c(=O)n12)Nc1cc(Cl)ccc1Cl	HCC 2998	inactive
CC1(C)OCC([C@H]2O[C@@H](CC(=S)NCCCCCCCCCCCCNC(=S)C[C@H]3O[C@@H](C4COC(C)(C)O4)[C@H]4OC(C)(C)O[C@H]43)[C@H]3OC(C)(C)O[C@H]32)O1 (stereo not given in full)	HCC 2998	inactive
OCC1OC(c2scc3c(=S)[nH]cnc23)C(O)C1O (stereo not given)	HCC 2998	inactive
O=C1CC(=O)N(C2CCCCC2)C(=O)N1c1ccccc1S(=O)(=O)Oc1ccccc1	HCC 2998	inactive
Clc1cccc(-c2nc3cccc4c3n2Cc2ncccc2-4)c1	HCC 2998	inactive
O=c1[nH]/c(=C/c2ccc(OCc3ccccc3)cn2)c(=O)[nH]/c1=C/c1ccc([N+](=O)[O-])cc1	HCC 2998	inactive
CC(C)=Cc1cc2c(cc1O)CCC1C2CC[C@@]2(C)C1CC[C@@H]2O (stereo not given in full)	HCC 2998	inactive
C[C@]12CCC(=O)C=C1CC[C@@H]1C2CC[C@]2(C)Nc3c(ncn3-c3ccc(F)cc3)CC12 (stereo not given in full)	HCC 2998	inactive
COc1ccc(C2SCC(=O)N2NC(=O)C(C)Oc2ccccc2Cl)cc1 (stereo not given)	HCC 2998	inactive
O=c1c2ncn(CCCl)c2n(-c2ccccc2)c(=S)n1-c1ccccc1	HCC 2998	inactive
CNC(=S)N/N=C1\CC(c2ccccc2)Oc2ccccc21 (stereo not given)	HCC 2998	inactive

* * *

Form field: GI50 (one value per entry).
- Tested on: KM12
- assay method text: NCI tumour cell line growth inhibition, 48 h
The source made the active and inactive calls. Cut-off read from the data, not from the text of the source: active = GI50 up to about 1.1 µM and inactive = higher.
observation type: GI50

> print(dat)
                                   molecule       value.reported
1  CC1(C)CCCCCC(C)(CCCO)C1=O (stereo unspecified)  > 100 µM (inactive)
2      COc1ccc2oc(=O)c(-c3nc4ccccc4o3)cc2c1   27.4 µM (inactive)
3         CCOc1ccccc1Nc1ccc(N)cc1S(=O)(=O)O  > 100 µM (inactive)
4  COc1cc(C=C2N=C(c3ccccc3)N(n3c(-c4ccccc4)nc4ccccc4c3=O)C2=O)cc(OC)c1OC   19.7 µM (inactive)
5  O=c1c(C(c2cnc3ccccc3c2)c2c(O)oc3ccccc3c2=O)c(O)oc2ccccc12   37.4 µM (inactive)
6  Cc1ccc(NC(=O)C(=O)C2C(=O)N(c3ccccc3)N=C2N)cc1C (stereo unspecified)  > 100 µM (inactive)

* * *

- System: T47D
- assay method text: NCI tumour cell line growth inhibition, 48 h
Activity calls are given as the source filed them. Cut-off read from the data, not from the text of the source: active = GI50 up to about 1.1 µM and inactive = higher.
Classes used: active, inactive

> print(dat)
                                    compound       cat
 1  O=C1c2ccccc2C(=O)N1CC(CN1C(=O)c2ccccc2C1=O)(C(=O)OCc1ccccc1)C(=O)OCc1ccccc1  inactive
 2  C#CCOCC12C=CC(O1)C1COC(=O)C12 (stereo unspecified)  inactive
 3        O=C1Nc2ccccc2/C1=N/NC(=S)N1CCCCCC1  inactive
 4  OCC1CCC(n2cnc3c(O)ncnc32)O1 (stereo unspecified)  inactive
 5                 Cn1cnc(N2CCCC2)c(C#N)c1=O  inactive
 6  CN(C)CC1CCC/C(=C\c2ccc(N(C)C)cc2)C1=O (stereo unspecified)  inactive
 7  Cc1cccc2c(N)c3cccc(C(=O)NCC[N+](C)(C)Cc4sc(N5CCOCC5)nc4[N+](=O)[O-])c3nc12  inactive
 8  COc1ccc2c(c1)CCC1=CC3(CCC12C)SCCS3 (stereo unspecified)  inactive
 9  COP(=O)(OC)C(O)/C=C/c1ccco1 (stereo unspecified)  inactive
10  CCN(CC)CCNc1ccc([N+](=O)[O-])c2nc3ccccc3c(N)c12    active
11            N/C(=N\O)N/N=C/c1cc(I)cc(I)c1O  inactive

* * *

- Tested on: NCI-H460
- assay method text: NCI tumour cell line growth inhibition, 48 h
Calls of active or inactive are those of the source. Rule as the data show it: active = GI50 up to about 1.1 µM and inactive = higher.
Outcomes: active, inactive

compound	cat
CC(C)CNC(=O)O	inactive
O=C(NS(=O)(=O)Nc1ccc(Cl)cc1)OCc1ccc(Cl)cc1Cl	inactive
CC(C)=CCC/C(C)=C/Cc1cc(/C=C/c2cc(O)c(CC=C(C)C)c(O)c2)cc(O)c1O [MAPPAIN]	inactive
O=c1c(C(c2cnc3ccccc3c2)c2c(O)oc3ccccc3c2=O)c(O)oc2ccccc12	inactive
Cc1c2c(nc3ccccc13)C(=O)c1cccnc1C2=O	inactive
N#CCCN(CCC#N)c1ccc(/C=C2\N=C(c3ccccc3)N(NC(N)=S)C2=O)cc1	inactive
CC(C)=CCC/C(C)=C/CC/C(C)=C/CC/C=C(\C)CC/C=C(\C)CCC1SC1(C)C (stereo unspecified)	inactive
CC(CO)CCNc1ncnc2c1ncn2CCC(=O)OC(C)(C)C (stereo unspecified)	inactive
COc1ccc(C2NC(c3ccc(OC)cc3)C(C)C(=O)C2C)cc1 (stereo unspecified)	inactive
CCC1C(=O)OCc2c1cc1n(c2=O)Cc2cc3ccccc3nc2-1 (stereo unspecified)	active
CCN(CC)CC(C(C)=O)C(c1ccccc1)c1c(O)c2ccccc2oc1=O (stereo unspecified)	inactive
COc1cc(/C=C/C(=O)O)ccc1C(=O)O/C=C/c1ccccc1	inactive
CC[P+]1(c2ccccc2)CCCCC1	inactive
Fc1sc2c(c1F)C1CCC2C1 (stereo unspecified)	inactive
CC(C)=CCC[C@@H](C)C1=C(Nc2ccccc2Cl)C(=O)C(C)=C(O)C1=O	inactive
C/C=C1\CN2CCc3c([nH]c4ccccc34)C2CC1CCO (stereo unspecified)	inactive
C/C(=N\NC(=O)c1cccnc1)c1cccc(/C(C)=N/NC(=O)c2cccnc2)n1.CC(=O)[O-].CC(=O)[O-].[Zn+2]	inactive
CCOC(=O)/C=C/[C@H](O)[C@@H](O)/C=C/C(=O)OCC	inactive
CN(C)C1(c2cc3ccccc3s2)CCCCC1	inactive
CC[C@H](C)C1=C(OC(C)=O)[N@+]2([O-])Oc3ccc(-c4c(O)c(O)c(-c5ccc(OC(C)=O)cc5)c(OC(C)=O)c4OC(C)=O)cc3O[C@]2([C@@H](C)CC)C(=O)N1O	inactive
NC(=O)Nc1c([N+](=O)[O-])cc(C(F)(F)F)cc1[N+](=O)[O-]	inactive

FYI, the data here is from ChEMBL document CHEMBL1201862.
